- test_summary: Drug repurposing screens with cells derived from glioblastoma tumor samples (AID 1345199); further: on the % scale 0 is the no-effect control and ±100 the full control effect
- assay_setup: GBM patient neurospheres viability, ATP luminescence, 48 h; at 46 µM (top of the series); tumour line A
Inconclusive results are not listed.
assay_readout: activity, negative = cell killing (%)
Answers are plain numbers, in %.

molecule: C[C@H](Cn1cnc2c(N)ncnc21)OCP(=O)(O)O
unit_info: %
measured_number: -24.5

molecule: CCCCCCCCCCCCCCCCCCCCCCO
unit_info: %
measured_number: -31.4

molecule: CC(C)[N+]1(C)[C@@H]2CC[C@H]1CC(OC(=O)C(CO)c1ccccc1)C2 (stereo partly specified)
unit_info: %
measured_number: -16.8

molecule: O=C(NCC1CCCCN1)c1cc(OCC(F)(F)F)ccc1OCC(F)(F)F (stereo unspecified)
unit_info: %
measured_number: 20.5

molecule: Nc1cccc2c1CN(C1CCC(=O)NC1=O)C2=O (stereo unspecified)
unit_info: %
measured_number: -28.8

Continue with the molecule presented below.
[ask] # input molecule: Cc1ncc([N+](=O)[O-])n1CC(C)O (stereo unspecified) ; wanted: its activity, negative = cell killing
[reply] -20.2
